What concentration at 2 h was measured for each of the following?
# protocol.description: Tissue levels after 2-hour IV infusion in rats
# Type: in vivo, rat
# test.context: rat brain; end of 2-hour IV infusion, 10 mg/kg
Your answer should be a plain number; it is taken to be in ng/mL.

Data point: "NCCC[C@@H](N)C(=O)N[C@H](CCc1ccccc1)C(=O)Nc1cnc2ccccc2c1" ; concentration at 2 h = 180

Data point: "NCCC[C@H](N)C(=O)N[C@H](CCc1ccccc1)C(=O)Nc1cnc2ccccc2c1" ; concentration at 2 h = 70

Data point: "NCCC[C@H](N)C(=O)N[C@H](Cc1ccc(C(F)(F)F)cc1)C(=O)Nc1cnc2ccccc2c1" ; concentration at 2 h = 490
